Target: Fibroblast growth factor 22 (Homo sapiens) (UniProt Q9HCT0)
Sequence (Q9HCT0 whole entry, looked up): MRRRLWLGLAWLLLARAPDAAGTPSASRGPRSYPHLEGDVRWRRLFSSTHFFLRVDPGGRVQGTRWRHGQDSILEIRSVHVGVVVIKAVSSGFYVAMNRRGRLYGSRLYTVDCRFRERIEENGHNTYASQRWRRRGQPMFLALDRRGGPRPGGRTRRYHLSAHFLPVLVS
Experiment: FGF22 ligand-induced thermal stabilization – biophysical, thermal shift, cherry-pick, FGF22 synaptogenesis inhibitor project, dose response (AID 687022)
Conditions: recombinant FGF22 thermal shift, SYPRO orange melting
Could you please report measured AbsAC1 (concentration giving Tm-shift threshold 1.0) for the items listed next?

Tell us which AbsAC1 (concentration giving Tm-shift threshold 1.0) value is on record for COc1ccc(/C=N/NC(=O)c2cc(-c3ccc4c(c3)OCO4)n[nH]2)cc1OC
18.1 µM

Tell us which AbsAC1 (concentration giving Tm-shift threshold 1.0) value is on record for CCOC(=O)c1sc(NC(=O)Nc2ccccc2)cc1C
10.2 µM

Tell us which AbsAC1 (concentration giving Tm-shift threshold 1.0) value is on record for O=[N+]([O-])c1ccc2nc(-c3ccccc3)[nH]c2c1
3.88 µM

Tell us which AbsAC1 (concentration giving Tm-shift threshold 1.0) value is on record for CN1C(=O)c2cc(NC(=O)c3cccc(F)c3)ccc2OC[C@H]2O[C@@H](CC(=O)NCC3CCCCC3)CC[C@H]21
22.3 µM

Tell us which AbsAC1 (concentration giving Tm-shift threshold 1.0) value is on record for Nc1nonc1-n1nnc(C(=O)N/N=C/c2cccnc2)c1CSc1ccc(Cl)cc1
3.46 µM

Tell us which AbsAC1 (concentration giving Tm-shift threshold 1.0) value is on record for CCOc1ccc(NC(=O)CC2C(=O)N(c3ccc(OC)cc3)C(=S)N2Cc2ccccn2)cc1 (centres undefined)
3.11 µM

Tell us which AbsAC1 (concentration giving Tm-shift threshold 1.0) value is on record for CCOc1ccc(N2C(=O)C(CC(=O)Nc3ccccc3)N(Cc3ccccn3)C2=S)cc1 (centres undefined)
4.24 µM

Tell us which AbsAC1 (concentration giving Tm-shift threshold 1.0) value is on record for C/C=C/c1ccc2c(c1)O[C@@H](CN(C)C(=O)Nc1ccc(F)cc1)[C@@H](C)CN([C@H](C)CO)S2(=O)=O
14.8 µM

Tell us which AbsAC1 (concentration giving Tm-shift threshold 1.0) value is on record for Cc1cccc(NC(=O)Nc2ccc(S(N)(=O)=O)cc2)c1
4.36 µM
